Biological target: KLC1 TPR domain (kinesin light chain 1 tetratricopeptide repeat domain) (human) (UniProt Q07866)
Test: ITC; peptide (1-3 mM) in the syringe injected into 60-130 uM KLC1-TPR or KLC2-TPR (or mutant) in the cell; 25 C; 20 mM Bis-Tris pH 6.5, 500 mM NaCl, 0.5 mM TCEP; one-site binding model
Endpoint: Kd (µM)

P = Ac-EYTCPTEDIYLE-OH [JIP1 peptide (C-terminal residues of JNK-interacting protein 1)]
Q = Ac-EMDWDDSALT-OH [ALC1 peptide (alcadein-1)]
query: Select the item with the higher value of Kd from the options P and Q listed. # respond with the chosen item's label
result: Q
(Q: 50.3 µM, P: 9.4 µM)

The reported numbers originate from paper PMC3314626.
